- Tested on: OVCAR-8 ovarian
- assayMethodText: NCI tumour cell line growth inhibition, 48 h

molecule	TGI
COC(=O)c1c(C(=O)OC)c(-c2ccccc2)n(-c2ccccc2)c(=O)c1-c1ccccc1	> 100 µM
CCOC(=O)[C@@]12C[C@](/C=C/OC)(O[Si](C)(C)C)[C@@]13c1cc(OC)c(OC)cc1CCN3C(=O)C2=O	> 100 µM
COc1ccc(/C=C/C(=O)c2c(-c3ccccc3)nn(C)c(=O)c2N2CC2C)cc1 (stereo not given)	> 100 µM
CNC(=O)OCc1cnc([N+](=O)[O-])n1C	> 100 µM
CSc1cc(Cl)c(C)cc1S(=O)(=O)NC(=O)NNc1ccc(C)cc1	> 100 µM
CC(C)c1ccc(O)c(Cc2cc(C(C)C)cc(Cc3cc(C(C)C)ccc3O)c2O)c1	4.18 µM
N=C(N)c1ccc2oc3ccc(C(=N)N)cc3c(=O)c2c1	> 100 µM
COc1cccc(/C=C2\N=C(c3ccccc3)OC2=O)c1	> 100 µM
Cc1cc(NC(=O)NCc2ccc(N3C(N)=NC(N)=NC3(C)C)cc2)ccc1S(=O)(=O)F	> 100 µM
CC1OC(OC2C(O)CC(OC3C(O)CC(OC4CCC5(C)C(CCC6C5CCC5(C)C(C7=CC(=O)OC7)C(O)CC65O)C4)OC3C)OC2C)CC(O)C1O (stereo not given)	0.813 µM
CC(=O)c1csc2c1C(=O)c1ccccc1C2=O	7.11 µM
CCCN1C(=O)/C(=C/c2ccc(SC(F)(F)F)cc2)SC1=Nc1ccc(OC)cc1	20.7 µM
[CH3][Sn]([CH3])([CH3])[S]C(=S)N1CCOCC1	> 85.4 µM
Nc1ncn([C@H]2CC(O)[C@@H](CO)S2)c(=O)n1 (stereo not given in full)	> 100 µM
CC(C)(C)OC(=O)Cn1ncn(NC(=O)Cc2ccccc2)c1=S	> 10 µM
COc1cc(-c2nc(-c3ccccc3)c(-c3ccccc3)[nH]2)cc(OC)c1O	83.2 µM
Cc1ccc(NCCNCC(C)(C)O)c2c(=O)c3ccc(Cl)cc3sc12	3.32 µM
Cc1cc(Cl)ccc1N=C1NC(=O)C(CC(=O)Nc2cccc(Cl)c2)S1 (stereo not given)	> 100 µM
Nc1ccc(CC[C@H]2CCC/C=C/[C@@H]3C[C@H](O)C[C@H]3[C@H](O)/C=C/C(=O)O2)cc1	> 100 µM
O=C(NNC(=O)c1ccco1)c1ccco1	> 100 µM

---

- Tested on: UACC-62 melanoma
- assayMethodText: NCI tumour cell line growth inhibition, 48 h
measurementType: TGI

molecule	measurementType	reading
N=C(N)c1ccc2oc3ccc(C(=N)N)cc3c(=O)c2c1	TGI	> 100 µM
COC(=O)C1=NC(=S)NC(c2ccccc2)C1c1nc2ccccc2o1 (stereo unspecified)	TGI	> 50 µM
COc1cc(N=Nc2cc(Cc3ccc(N(C)C)cc3)c(N)cc2N(C)C)c2ncccc2c1	TGI	1.83 µM
CCn1c(-c2nonc2N)nc2ccccc21	TGI	> 25 µM
Nc1ccc(CC[C@H]2CCC/C=C/[C@@H]3C[C@H](O)C[C@H]3[C@H](O)/C=C/C(=O)O2)cc1	TGI	14.1 µM
CC(=O)N[C@@H](Cc1ccc(O)cn1)C(=O)NCc1ccc(Cl)cc1	TGI	> 100 µM

---

- System: UO-31 renal
- assayMethodText: NCI tumour cell line growth inhibition, 48 h

compound	TGI
COc1ccc(-c2nsc3c2NC(=O)CC3c2ccsc2)cc1 (centres undefined)	> 100 µM
CCOC(=O)N1c2ccccc2C(C)=CC(C)C1C (centres undefined)	> 100 µM
C/C(=C\C(=O)Nc1ccc2n[nH]nc2c1)Nc1ccc2n[nH]nc2c1	> 100 µM
CO[C@@]12C[C@H](CNC(=O)c3ccc[nH]3)O[C@@H]1NC(=O)N2	> 100 µM
CCOC(=O)Cc1c(C(=O)OCC)[n+](=O)c2cc(Cl)c(Cl)cc2n1[O-]	3.36 µM
CC(=O)OCC1OC(OCCCOP(=O)(OCCC#N)OCC2OC(n3cnc4c(N)ncnc43)C(OC(=O)c3ccccc3)C2OC(=O)c2ccccc2)C(OC(C)=O)C(OC(C)=O)C1OC(C)=O (centres undefined)	> 100 µM
CC1CC(=O)N(N(C)C)C2(C#N)C(=O)N=C(N)C12C#N (centres undefined)	> 100 µM
COc1cc(-c2nc(-c3ccccc3)c(-c3ccccc3)[nH]2)cc(OC)c1O	31 µM
Cc1ccc(-c2nc(NCCOCCOCCN)nc(N3CCN(c4ccccn4)CC3)n2)cc1	29.9 µM
CC[C@H](C)[C@H](NC(=O)[C@H]1CCCCN1C)C(=O)N(C)[C@H](CCc1nc(C(=O)N[C@@H](Cc2ccccc2)C[C@H](C)C(=O)O)cs1)C(C)C	> 25 µM
O=c1cc(-c2ccccc2)oc2ccc(Cl)cc12	> 88.8 µM
O=C(Nc1cccc(-n2ccc3c(NC(=O)c4ccccc4)ncnc32)c1)Nc1ccc(Cl)c(C(F)(F)F)c1	10.9 µM
COC(=O)CC1(O)C(=O)OCc2c1cc1n(c2=O)Cc2c-1nc1ccccc1c2OC (centres undefined)	30.5 µM
C=C1OC2OC(C)C(NC(=O)OCC(Cl)(Cl)Cl)C(OC(C)=O)C2O1 (centres undefined)	> 100 µM
